B1: library; a variant is named by its letters at N, in order (parent)
chain: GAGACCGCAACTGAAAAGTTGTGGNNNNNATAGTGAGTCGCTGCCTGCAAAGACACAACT

Variants of: B1
procedure_details: ligation selection enrichment (abundance after / before one-round selection) (fold); higher = more template-directed ligation activity
condition_parameters: with T7Psub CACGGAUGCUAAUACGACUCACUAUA; MgCl2 25 mM; 42 °C; 4 h; pH 8.5
Note to self: values exactly at 0.5 are T. So ligation selection enrichment at or above 0.5 is T, below is F.

Solved cases (8 shown):
variant_spec: TACCA
classification: F
--
variant_spec: ACCTC
classification: F
--
variant_spec: ATCTT
classification: F
--
variant_spec: GCGTA
classification: F
--
variant_spec: GCTGG
classification: F
--
variant_spec: CCAAC
classification: F
--
variant_spec: CGGCC
classification: F
--
variant_spec: ATCAG
classification: T

Task: ligation selection enrichment >= 0.5 for `CGTAG` ?
Result: T

Task: Proceed to `ATCTC`
Result: F

Task: Same thing, different variant: `GCAGC`
Result: F

Task: Next up: `GTGAA`
Result: T

Task: Field entry: `GACCT`
Result: T

Task: Quick one: `GATAG`
Result: T

Task: Please do the same for `GGTAT` as well.
Result: T

Recorded values, source the supplement of paper PMC10219994.
